// provenance: PubChem BioAssay AID1578

method-description: NOD1 signaling inhibitors, primary screen, cell-based, luminescence, uHTS (AID 1578);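 further: HEK-293T reporter cells stimulated with the NOD1 agonist gamma-tri-DAP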
applied-conditions: NOD1-driven NF-kB luciferase reporter cells, at 4 µM
In all, about 290,000 compounds went through this assay and about 3,000 (1%) were called active. No stated cut-off is given here; in the data, active means inhibition mostly above about 36% (no sharp cut-off); inactive means mostly below about 34%. What follows is part of a selection rich in actives, with near analogues and random picks from the rest.
Would you mind answering with one of these outcomes? active, inactive

Please review the entries below; each comes with its answer.
{"columns": ["compound", "assigned-category"],
 "data": [
  ["N/C(=N\\OCc1ccc([N+](=O)[O-])cc1)c1ccccn1", "active"],
  ["CN(c1ccccc1)S(=O)(=O)c1ccc(Cl)c(C(=O)Nc2ccc(-c3nc4ccccc4[nH]3)cc2)c1", "inactive"],
  ["Cc1nc2ccc(NC(=O)c3ccc(Cl)c(S(=O)(=O)N(C)c4ccccc4)c3)cc2s1", "inactive"],
  ["CCOc1ccc(/C(O)=C2/C(=O)C(=O)N(c3ncccn3)C2c2ccccc2)cc1 (centres undefined)", "active"]
]}

Query :: Per the records of this test, what outcome belongs to COC(=O)c1c(N)sc(C(=O)NCCc2ccccc2)c1C ?
Result :: active

Query :: Hi, do you know how O=C1c2[nH]nc(-c3ccccc3O)c2C(c2ccc(F)cc2)N1Cc1ccco1 (centres undefined) came out in this test?
Result :: active

Query :: Record lookup: outcome of this test for COc1ccc(N2CCN(C(=O)NC(=O)c3ccc(Cl)cc3)CC2)cc1 ?
Result :: inactive

Query :: # lookup: test call for CCCCCCCSc1nnc(N)s1
Result :: inactive

Query :: Given O=C(CN1C(=O)S/C(=C\c2cccs2)C1=O)Nc1ccc(O)cc1C(=O)O , state the outcome it received in this test.
Result :: inactive

Query :: Answer briefly: the call reported for Cn1c(N2CCCC2)nc2c1c(=O)n(Cc1ccc(Cl)cc1)c(=O)n2C in this assay.
Result :: inactive

Query :: Each compound tested received a call. Report the one for CCC(C)NC(=O)C(Cc1ccccc1)n1cccc1 (centres undefined) .
Result :: inactive

----------
method-description: NOD1 signaling inhibitors, primary screen, cell-based, luminescence, uHTS (AID 1578);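 further: HEK-293T reporter cells stimulated with the NOD1 agonist gamma-tri-DAP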
applied-conditions: NOD1-driven NF-kB luciferase reporter cells, at 4 µM, stronger effect = higher value
Among all 290,000 compounds or so, about 3,000 (1%) were called active. The sample holds actives, similar compounds and a random draw of the others, so the mix is not that of the screen.
endpoint-name: inhibition (%)
Answers are plain numbers, in %.

Some compounds with known inhibition results, for comparison:
{"columns": ["line-notation", "endpoint-name", "measurement-unit", "reported-measurement"],
 "data": [
  ["COc1cc(/C=N/Nc2ccc(C(=O)O)cc2)ccc1O", "inhibition", "%", -8.3],
  ["CC(=O)Nc1nc(-c2cccc3ccccc23)cs1", "inhibition", "%", -32.8],
  ["COc1ccc(/C=N/Nc2ccc(C(=O)O)cc2)cc1OC", "inhibition", "%", -8.6],
  ["Cn1cc2ccc([N+](=O)[O-])cc2n1", "inhibition", "%", -6.5]
]}

Provide reported inhibition for each item, in the same order as listed.
1. COc1cc(/C=N/O)ccc1OCc1ccc(Cl)cc1
2. Cc1ccc(/C=C/C(=O)c2c(C)nc3ccccn23)cc1
3. C/C(=N\NC(=O)c1c(C)nc2ccccn12)c1cccc([N+](=O)[O-])c1
4. O=C(Nc1ccc(Cl)cc1)Nc1ccccc1Sc1ncc([N+](=O)[O-])s1
5. COc1cc(/C=N/O)ccc1OCc1ccc(C(=O)O)cc1
6. Nc1nc(-c2ccc(F)cc2)cc(C(F)(F)F)n1
7. COc1cccc(/C=N/Nc2ccc([N+](=O)[O-])cc2)c1O
8. O=C(O)c1ccc(N/N=C/c2c(F)cccc2Cl)cc1

Result ::
[-6.6, -11.3, -11.1, -6.5, 100, 9.6, -2.8, 26.1]

----------
Could you please report measured inhibition for the items listed next?
method-description: NOD1 signaling inhibitors, primary screen, cell-based, luminescence, uHTS (AID 1578);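 further: HEK-293T reporter cells stimulated with the NOD1 agonist gamma-tri-DAP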
applied-conditions: NOD1-driven NF-kB luciferase reporter cells, at 4 µM, stronger effect = higher value
The campaign covered roughly 290,000 compounds. About 3,000 (1%) were called active. This is one part of a sample in which actives are shown more often than they occur.
Give bare numbers, in %.

{"columns": ["molecule", "inhibition / %"],
 "data": [
  ["CCOC(=O)CN1C(=O)S/C(=C/c2ccco2)C1=O", -37.3]
]}

For every item below, please supply its inhibition.
1. CC(C)(C)c1[nH]nc2c1C(c1ccncc1)C(C#N)=C(N)O2 (configuration not stated)
2. CCN(CC)S(=O)(=O)c1cccc(C(=O)N[C@H](C(=O)OCC(=O)Nc2ccccc2)C(C)C)c1
3. CCO[C@@H]1OC(C(=O)N2CCOCC2)=C[C@H](C)[C@H]1CCCO
4. Cc1ccccc1N1CCN(C2CCCN(C(=O)c3noc4c3CCCC4)C2)CC1 (configuration not stated)

Result ::
[-8.8, -24.7, -28.1, 6.2]

For each listed entry, give its inhibition.
1. CC(c1ccccc1)N1CCn2c(nc3cc(NC(=O)c4cccs4)ccc32)C1 (configuration not stated)
2. Cc1ccccc1CC(=O)N1CCCC(CCC(=O)N2CCN(c3ccccn3)CC2)C1 (configuration not stated)
3. Cn1cc(CNCc2cn[nH]c2-c2ccc(F)cc2)c(-c2ccc3c(c2)OCCO3)n1
4. CC1(C)OC(=O)CC1C(=O)NCc1ccccc1 (configuration not stated)
5. COc1ccc(N2CCN(Cc3cc4c(cc3Br)OCCO4)CC2)cc1
6. CCC(c1nnnn1C(C)C)N1CCN(C2CCCC2)CC1 (configuration not stated)
7. O=C(NNS(=O)(=O)c1ccccc1)c1ccc(F)cc1
8. O=C(Cc1ccc(F)cc1)Nc1nccs1

Result ::
0.3
-12.6
-22.2
-18.4
-11.3
-14
-11.4
-24.2

For the 3 molecules below, give their inhibition values.
1. O=C(Nc1ccc(S(=O)(=O)Nc2nccs2)cc1)c1ccc(F)cc1
2. O=C(N/N=C/c1ccc(OC(F)F)cc1)c1ccc(CSc2nc3ccccc3[nH]2)cc1
3. CC(C)(C)c1[nH]nc2c1C(c1ccsc1)C(C#N)=C(N)O2 (configuration not stated)

Result ::
1: -13.9; 2: -27.9; 3: 59.2

Take each entry in turn and give its inhibition.
1. C/C(=N\NC(=O)c1nnn(-c2nonc2N)c1CSc1ccccc1)c1cccnc1
2. Cn1cc(CNCc2ccc(OC(F)(F)F)cc2)c(-c2ccc3c(c2)OCCO3)n1
3. COCc1nnc(NC(=O)C2CCN(C(=O)c3ccco3)CC2)s1
4. COCCN1CCn2c(nc3cc(NC(=O)c4cccs4)ccc32)C1
5. O=C(Nc1ccccc1)C1(c2ccccc2)CC1(Cl)Cl (configuration not stated)
6. CCO[C@H]1OC(C(=O)N2CCCCCCC2)=C[C@@H](C)[C@@H]1CCCO

Result ::
[-4.5, 75.4, -4, -28.2, -28.2, 40]

----------
method-description: NOD1 signaling inhibitors, primary screen, cell-based, luminescence, uHTS (AID 1578);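 further: HEK-293T reporter cells stimulated with the NOD1 agonist gamma-tri-DAP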
applied-conditions: NOD1-driven NF-kB luciferase reporter cells, at 4 µM
In all, about 290,000 compounds went through this assay and about 3,000 (1%) were called active. No stated cut-off is given here; in the data, active means inhibition mostly above about 36% (no sharp cut-off); inactive means mostly below about 34%. The sample holds actives, similar compounds and a random draw of the others, so the mix is not that of the screen.
Respond using exactly one of the listed classes: active, inactive

Example cases with answers are listed next.
{"columns": ["line-notation", "assigned-category"],
 "data": [
  ["COCCCn1c(SCc2ccc(OC)cc2)nc2cc(OC)c(OC)cc2c1=N", "inactive"],
  ["COc1cc2c(cc1OC)CN(C(=O)COc1ccc(C#N)cc1)CC2", "inactive"],
  ["C=C1C(=O)C=C[C@]2(C)C[C@@H]3OC(=O)[C@](C)(O)[C@H]3C[C@@H]12", "active"],
  ["C/C=C(/C)C(=O)OC(C)(C)[C@@H]1Cc2c(ccc3ccc(=O)oc23)O1", "inactive"]
]}

Let's switch to this compound now.
Query :: Test call, this compound: CCn1c(=O)c(C(C)=O)c(O)c2ccccc21
Result :: inactive

----------
method-description: NOD1 signaling inhibitors, primary screen, cell-based, luminescence, uHTS (AID 1578);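 further: HEK-293T reporter cells stimulated with the NOD1 agonist gamma-tri-DAP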
applied-conditions: NOD1-driven NF-kB luciferase reporter cells, at 4 µM, stronger effect = higher value
Among all 290,000 compounds or so, about 3,000 (1%) were called active. Only a selection was taken, and actives are over-represented in it overall.
endpoint-name: inhibition (%)
Answers are plain numbers, in %.

Field: example entries. Status: answers known.
{"columns": ["compound", "measurement-unit", "inhibition"],
 "data": [
  ["COc1ccc(CCNC(=O)CNC(=O)c2nn(-c3ccc(OC)c(OC)c3)c(=O)c3ccccc23)cc1OC", "%", -4.9],
  ["Cc1ccc(SCC(=O)NC2CCCCCC2)cc1", "%", -50.8],
  ["O=C(c1ccccc1)N1CCC(c2nc(-c3ccc(S(=O)(=O)N4CCOCC4)cc3)no2)CC1", "%", 18.2],
  ["Cn1nnnc1SCC(=O)N1CCN(C(=O)c2ccco2)CC1", "%", -32.2],
  ["Cc1cc(N/N=C/c2cccc([N+](=O)[O-])c2)nc(-n2nc(C)cc2C)n1", "%", -14.5]
]}

List reported inhibition for each of these compounds:
1. Cc1cc(N/N=C/c2cccc(Cl)c2)nc(-n2nc(C)cc2C)n1
2. CN(CC(=O)Nc1ccc(Cl)c(C(F)(F)F)c1)C(=O)CC1Sc2ccccc2NC1=O (stereo unspecified)
3. COc1ccc(NC(=O)c2cc([N+](=O)[O-])ccc2N2CCCCC2)cc1
4. CCOc1ccc(C(=O)NCc2ccncc2)cc1
5. COc1ccc(C(=O)N2CCC(C(=O)Nc3ccc4c(c3)OCCO4)CC2)cc1
6. O=C(NCc1ccncc1)c1ccc(Oc2ccccc2)cc1

Result ::
-0.3
-18.8
-27.2
-14.8
-5.6
18.9
